measurement.target: Acetylcholinesterase (Anopheles gambiae)
experiment.summary: Inhibition of Anopheles gambiae recombinant AChE1 expressed in baculovirus infected insect Sf9 cells using acetylthiocholine iodide as substrate measured over 60 secs by Ellman assay
Each entry below carries its recorded IC50.
State the answer as a number, implicitly in µM.

Consider the reported IC50 for these compounds:
>>> df
                         chemical_structure                        measurement_target  reading_unit  reading
0     c1ccc(COc2ccc(CN3CCc4ccccc4C3)cc2)cc1  Acetylcholinesterase (Anopheles gambiae)            µM      2.9
1  CCN1CCN(C2CCN(C(=O)COc3ccc(-c4ccccc4)cc3)CC2)CC1  Acetylcholinesterase (Anopheles gambiae)            µM     0.21

Input line: Give recorded IC50. "O=C(COc1ccccc1)N1CCN(C2CCN(Cc3ccccc3)CC2)CC1"
Output line: 21

----------
measurement.target: Acetylcholinesterase (Homo sapiens, UniProt P22303)
experiment.summary: Inhibition of human recombinant AChE using acetylthiocholine iodide as substrate measured over 60 secs by Ellman assay
readout.kind: IC50

                         chemical_structure   reading
0  CCN1CCN(C2CCN(C(=O)COc3ccc(-c4ccccc4)cc3)CC2)CC1     31 µM
1  O=C(c1ccccc1F)N1CCN(C2CCN(Cc3ccccc3)CC2)CC1  > 200 µM

Input line: Quickly give me recorded IC50 for "c1ccc(COc2ccc(CN3CCc4ccccc4C3)cc2)cc1"
Output line: > 200 µM

----------
Reported IC50 is given for each of the following compounds.
measurement.target: Acetylcholinesterase (Anopheles gambiae, UniProt Q869C3)
experiment.summary: Inhibition of Anopheles gambiae recombinant AChE1 expressed in baculovirus infected insect Sf9 cells using acetylthiocholine iodide as substrate measured over 60 secs by Ellman assay
The response must be a number in µM with no trailing unit.

>>> df
                         chemical_structure                        measurement_target  reading_unit  reading
0  O=C(COc1ccc(Cl)cc1Cl)Nc1ccc(CN2CCCCC2)cc1  Acetylcholinesterase (Anopheles gambiae, UniProt Q869C3)            µM     0.26
1  CCSc1nc2sc3c(c2c(=O)n1-c1ccccc1)CCN(Cc1ccccc1)C3  Acetylcholinesterase (Anopheles gambiae, UniProt Q869C3)            µM      8.3

Input line: Give the value of IC50 reported for the following: "O=C(c1ccccc1F)N1CCN(C2CCN(Cc3ccccc3)CC2)CC1"
Output line: 17

----------
experiment.summary: Selectivity ratio of IC50 for human recombinant AChE to IC50 for Anopheles gambiae recombinant AChE1
readout.kind: Ratio IC50
I'd appreciate a reply containing only the number, no unit.

>>> df
                         chemical_structure  reading
0  O=C(COc1ccccc1)N1CCN(C2CCN(Cc3ccccc3)CC2)CC1        2

Input line: # return recorded Ratio IC50 for entry "CCSc1nc2sc3c(c2c(=O)n1-c1ccccc1)CCN(Cc1ccccc1)C3"
Output line: 0.6

----------
experiment.summary: Selectivity ratio of IC50 for human recombinant AChE to IC50 for Aedes aegypti recombinant AChE1
readout.kind: Ratio IC50
// no unit string in output, number only

In [3]: df
Out[3]:
                         chemical_structure  reading
0  O=C(COc1ccccc1)N1CCN(C2CCN(Cc3ccccc3)CC2)CC1        2

Input line: Read off the recorded Ratio IC50 for "CCSc1nc2sc3c(c2c(=O)n1-c1ccccc1)CCN(Cc1ccccc1)C3"
Output line: 0.6

----------
measurement.target: Acetylcholinesterase (Mus musculus)
Sequence (P21836 whole entry): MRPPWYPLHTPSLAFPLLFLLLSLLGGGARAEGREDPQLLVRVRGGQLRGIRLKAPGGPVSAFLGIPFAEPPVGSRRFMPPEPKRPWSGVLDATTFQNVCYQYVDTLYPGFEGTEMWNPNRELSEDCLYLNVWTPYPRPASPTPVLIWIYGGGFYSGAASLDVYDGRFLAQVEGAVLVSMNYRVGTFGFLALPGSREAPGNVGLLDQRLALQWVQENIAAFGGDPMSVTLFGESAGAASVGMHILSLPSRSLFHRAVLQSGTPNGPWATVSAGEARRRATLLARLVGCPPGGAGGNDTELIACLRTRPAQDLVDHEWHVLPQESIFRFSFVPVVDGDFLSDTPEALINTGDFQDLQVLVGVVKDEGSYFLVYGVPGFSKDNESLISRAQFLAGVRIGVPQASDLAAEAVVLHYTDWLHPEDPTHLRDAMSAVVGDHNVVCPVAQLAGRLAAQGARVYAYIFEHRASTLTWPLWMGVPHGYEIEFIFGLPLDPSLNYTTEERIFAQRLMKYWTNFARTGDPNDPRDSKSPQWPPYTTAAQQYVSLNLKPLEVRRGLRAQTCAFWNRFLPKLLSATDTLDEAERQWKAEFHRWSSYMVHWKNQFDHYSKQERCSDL
experiment.summary: Inhibition of mouse recombinant AChE using acetylthiocholine iodide as substrate measured over 60 secs by Ellman assay
readout.kind: IC50
A complete answer gives the number and then names the unit.

Input line: Provide only the value of recorded IC50 for "CCN1CCN(C2CCN(C(=O)COc3ccc(-c4ccccc4)cc3)CC2)CC1"
Output line: 18 µM

----------
measurement.target: Acetylcholinesterase (Anopheles gambiae, UniProt Q869C3, G122S)
experiment.summary: Inhibition of Anopheles gambiae recombinant AChE1 G122S mutant using acetylthiocholine iodide as substrate by Ellman assay
Examples of molecules with documented pIC50 follow.
pIC50 here is simply -log10 of the concentration when that concentration is written in mol/L.

>>> print(df.to_string())
                         chemical_structure  readout_kind  reading
0  O=C(COc1ccc(Cl)cc1Cl)Nc1ccc(CN2CCCCC2)cc1         pIC50     5.92

Input line: For the molecule "CCN1CCN(C2CCN(C(=O)COc3ccc(-c4ccccc4)cc3)CC2)CC1" , give its measured pIC50 value.
Output line: 5.89

----------
Entries and their inhibition values follow.
experiment.summary: Inhibition of Aedes aegypti recombinant AChE1 expressed in baculovirus infected insect Sf9 cells at 50 uM using acetylthiocholine iodide as substrate measured over 60 secs by Ellman assay relative to control
Please give a number only; it is taken to be in %.

>>> df
                         chemical_structure  reading_unit  reading
0  O=S(=O)(NCCSc1nnc(-c2ccco2)n1-c1ccccc1)c1ccccc1             %       82

Input line: Using known records, supply inhibition for "Fc1ccccc1COc1ccccc1CNCCN1CCOCC1"
Output line: 38

Input line: Provide inhibition value for the following molecule: "COc1ccc(CN2CC=C(c3ccc(F)cc3)CC2)cc1OCc1ccccc1"
Output line: 90

Input line: Provide inhibition value for the following molecule: "CCOc1ccc(-n2c(SCc3nc(-c4ccccc4C)no3)nnc2-c2ccccc2)cc1"
Output line: 1

Input line: Quote inhibition reported for "CCN1CCN(C2CCN(C(=O)COc3ccc(-c4ccccc4)cc3)CC2)CC1" please.
Output line: 76

Input line: Note down inhibition recorded for "O=C(COc1ccc(Cl)cc1Cl)Nc1ccc(CN2CCCCC2)cc1"
Output line: 91

Input line: # return recorded inhibition for input "c1ccc(COc2ccc(CN3CCc4ccccc4C3)cc2)cc1"
Output line: 80

Input line: Please supply the value of reported inhibition for the item "CCSc1nc2sc3c(c2c(=O)n1-c1ccccc1)CCN(Cc1ccccc1)C3"
Output line: 93

Input line: Give recorded inhibition. "O=C(c1ccccc1F)N1CCN(C2CCN(Cc3ccccc3)CC2)CC1"
Output line: 33

Input line: Answer with reported inhibition of "O=C(COc1ccccc1)N1CCN(C2CCN(Cc3ccccc3)CC2)CC1"
Output line: 18

----------
measurement.target: Acetylcholinesterase (Anopheles gambiae) (UniProt Q869C3)
experiment.summary: Inhibition of Anopheles gambiae recombinant AChE1 expressed in baculovirus infected insect Sf9 cells at 50 uM using acetylthiocholine iodide as substrate measured over 60 secs by Ellman assay relative to control
readout.kind: inhibition
Put down the number, then write its unit next to it.

Record excerpt, results attached:
>>> print(df.to_string())
                         chemical_structure                        measurement_target  readout_kind  reading
0  CCOc1ccc(-n2c(SCc3nc(-c4ccccc4C)no3)nnc2-c2ccccc2)cc1  Acetylcholinesterase (Anopheles gambiae) (UniProt Q869C3)    inhibition      63%
1  CCSc1nc2sc3c(c2c(=O)n1-c1ccccc1)CCN(Cc1ccccc1)C3  Acetylcholinesterase (Anopheles gambiae) (UniProt Q869C3)    inhibition      94%

Input line: Recall and state the measured inhibition for "Fc1ccccc1COc1ccccc1CNCCN1CCOCC1" .
Output line: 23%

Input line: Supply measured inhibition of "O=C(c1ccccc1F)N1CCN(C2CCN(Cc3ccccc3)CC2)CC1" in your reply.
Output line: 32%

----------
measurement.target: Acetylcholinesterase (Anopheles gambiae, UniProt Q869C3)
experiment.summary: Inhibition of Anopheles gambiae recombinant AChE1 expressed in baculovirus infected insect Sf9 cells using acetylthiocholine iodide as substrate measured over 60 secs by Ellman assay
readout.kind: IC50

Would you please look over these solved cases?
>>> print(df.to_string())
                         chemical_structure  readout_kind   reading
0           Fc1ccccc1COc1ccccc1CNCCN1CCOCC1          IC50  > 500 µM
1  COc1ccc(CN2CC=C(c3ccc(F)cc3)CC2)cc1OCc1ccccc1          IC50  > 100 µM

Continue with the molecule presented below.
Input line: Give a short answer stating reported IC50 for "CCOc1ccc(-n2c(SCc3nc(-c4ccccc4C)no3)nnc2-c2ccccc2)cc1" .
Output line: > 1000 µM
